Protein target, amino acids: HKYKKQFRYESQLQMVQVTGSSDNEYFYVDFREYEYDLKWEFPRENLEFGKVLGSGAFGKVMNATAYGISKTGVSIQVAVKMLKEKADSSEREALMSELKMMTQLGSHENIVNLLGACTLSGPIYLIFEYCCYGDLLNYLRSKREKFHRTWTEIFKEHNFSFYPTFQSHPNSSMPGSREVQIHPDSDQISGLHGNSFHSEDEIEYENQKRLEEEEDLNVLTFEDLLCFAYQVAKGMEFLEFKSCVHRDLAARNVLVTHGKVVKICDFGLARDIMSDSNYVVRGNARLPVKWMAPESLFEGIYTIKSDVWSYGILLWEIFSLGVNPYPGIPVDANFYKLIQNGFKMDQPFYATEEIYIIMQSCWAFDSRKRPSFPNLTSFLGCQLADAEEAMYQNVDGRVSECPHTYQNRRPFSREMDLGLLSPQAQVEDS
pIC50: −log10 of the molar value.
Quantity: pIC50

[
  {
    "Compound": "[2H]C([2H])([2H])C(O)(c1cc2nn(CCC(C)(C)O)cc2cc1NC(=O)c1coc(-c2ccnc(C(F)(F)F)c2)n1)C([2H])([2H])[2H] [II-109]",
    "Quantity": "pIC50",
    "Recorded measurement": 8.38
  },
  {
    "Compound": "Cc1cc(-c2nc(C(=O)Nc3cc4cn(CCC(C)(C)O)nc4cc3C(C)(O)C(F)(F)F)co2)ccn1 (stereo not shown) [II-111]",
    "Quantity": "pIC50",
    "Recorded measurement": 9.38
  }
]

P. Cc1cc(-c2nc(C(=O)Nc3cc4cn(C5CCN(CC(F)(F)F)CC5)nc4cc3C(C)(C)O)co2)ccn1 [II-59]
Q. CC(C)N1CCC(n2cc3cc(NC(=O)c4coc(-c5ccnc(C(F)(F)F)c5)n4)c(C(C)(C)O)cc3n2)CC1 [II-113F]
Lower value of pIC50 belongs to which: P or Q ? To answer, give the label that identifies your chosen option.
P
(P: 9.20, Q: 9.42)

###

Target protein (sequence): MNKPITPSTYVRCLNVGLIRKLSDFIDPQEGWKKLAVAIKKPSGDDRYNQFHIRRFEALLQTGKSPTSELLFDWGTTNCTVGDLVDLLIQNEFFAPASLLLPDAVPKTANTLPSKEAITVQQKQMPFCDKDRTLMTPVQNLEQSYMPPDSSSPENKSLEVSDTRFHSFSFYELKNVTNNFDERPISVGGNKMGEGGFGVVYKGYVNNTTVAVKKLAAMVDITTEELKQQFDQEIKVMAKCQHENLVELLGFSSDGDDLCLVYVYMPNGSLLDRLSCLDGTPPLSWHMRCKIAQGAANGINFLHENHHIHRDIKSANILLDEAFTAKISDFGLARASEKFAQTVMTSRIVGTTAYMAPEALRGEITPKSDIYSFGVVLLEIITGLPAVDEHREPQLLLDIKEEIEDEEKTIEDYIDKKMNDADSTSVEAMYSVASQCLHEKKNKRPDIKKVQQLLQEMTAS
pIC50: −log10 of the molar value.
Quantity: pIC50

Please review the entries below; each comes with its answer.
[
  {
    "Compound": "CC(C)N1CCC(n2cc3cc(NC(=O)c4coc(-c5ccnc(C(F)(F)F)c5)n4)c(C(C)(C)O)cc3n2)CC1 [II-113F]",
    "pIC50": 8.34
  },
  {
    "Compound": "Cc1cc(-c2nc(C(=O)Nc3cc4cn(C5CCOCC5)nc4cc3C(C)(C)O)co2)ccn1",
    "pIC50": 8.47
  },
  {
    "Compound": "Cc1cc(-c2nc(C(=O)Nc3cc4sc(N5CCOCC5)nc4cc3N3CCC(O)C3)co2)ccn1 (stereo not drawn)",
    "pIC50": 8.32
  }
]

I. CC(C)c1cc(-c2nc(C(=O)Nc3cc4cn(CCC(C)(C)O)nc4cc3C(C)(C)O)co2)ccn1
II. CC(C)(O)CCn1cc2cc(NC(=O)c3coc(-c4ccnc(C(F)(F)F)c4)n3)c(C(C)(C)O)nc2n1
III. CC(C)(O)c1cc2nn(C3CCOCC3)cc2cc1NC(=O)c1coc(-c2ccnc(C(F)(F)F)c2)n1
// ascending sort on recorded pIC50 Returns: the labels arranged in the requested order.
II, III, I
(II: 7.70, III: 8.04, I: 8.28)

###

- Study target: IRAK4 kinase (Homo sapiens)
- Sequence (Q9NWZ3 1-460): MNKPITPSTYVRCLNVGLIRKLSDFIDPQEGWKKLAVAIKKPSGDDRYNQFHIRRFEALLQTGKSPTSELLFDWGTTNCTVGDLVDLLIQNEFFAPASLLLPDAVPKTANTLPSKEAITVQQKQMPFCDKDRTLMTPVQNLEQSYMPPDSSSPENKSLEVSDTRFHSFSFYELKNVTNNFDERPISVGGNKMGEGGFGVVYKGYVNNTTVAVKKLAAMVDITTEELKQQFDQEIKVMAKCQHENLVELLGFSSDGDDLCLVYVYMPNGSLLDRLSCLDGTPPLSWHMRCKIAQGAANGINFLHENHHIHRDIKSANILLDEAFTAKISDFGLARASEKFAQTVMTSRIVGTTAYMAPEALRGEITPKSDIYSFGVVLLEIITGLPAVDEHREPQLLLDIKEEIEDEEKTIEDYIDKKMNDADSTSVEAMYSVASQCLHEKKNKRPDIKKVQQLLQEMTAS
pIC50: −log10 of the molar value.
Quantity: pIC50

Please review the entries below; each comes with its answer.
[
  {
    "Compound": "Cc1cc(-c2nc(C(=O)Nc3cc4cn(C5CCOC(C)(C)C5)nc4cc3C(C)(C)O)co2)ccn1 (centres unmarked)",
    "pIC50": 8.49
  },
  {
    "Compound": "Cc1cc(-c2nc(C(=O)Nc3cc4cn(C5CC6CCC(C5)N6C)nc4cc3C(C)(C)O)co2)ccn1 (centres unmarked)",
    "pIC50": 7.66
  },
  {
    "Compound": "COc1cc2nn(C3CCNCC3)cc2cc1NC(=O)c1coc(N2CCN(C(C)=O)CC2)n1",
    "pIC50": 6.75
  }
]

P. Cc1cc(-n2ccc(C(=O)Nc3cc4oc(N5CCOCC5)nc4nc3N3CCC(O)C3)n2)ccn1 (centres unmarked)
Q. Cc1cc(-c2nc(C(=O)Nc3cc4cn(C5CCC6(CNC6)C5)nc4cc3C(C)(C)O)co2)ccn1 (centres unmarked)
R. Cc1cc(-c2nc(C(=O)Nc3cc4cn(CC5(F)CNC5)nc4cc3C(C)(C)O)co2)ccn1
// ascending sort on recorded pIC50 Returns: the labels arranged in the requested order.
P, R, Q

###

- Study target: UniProt:Q9NWZ3
- Sequence (Q9NWZ3 1-460): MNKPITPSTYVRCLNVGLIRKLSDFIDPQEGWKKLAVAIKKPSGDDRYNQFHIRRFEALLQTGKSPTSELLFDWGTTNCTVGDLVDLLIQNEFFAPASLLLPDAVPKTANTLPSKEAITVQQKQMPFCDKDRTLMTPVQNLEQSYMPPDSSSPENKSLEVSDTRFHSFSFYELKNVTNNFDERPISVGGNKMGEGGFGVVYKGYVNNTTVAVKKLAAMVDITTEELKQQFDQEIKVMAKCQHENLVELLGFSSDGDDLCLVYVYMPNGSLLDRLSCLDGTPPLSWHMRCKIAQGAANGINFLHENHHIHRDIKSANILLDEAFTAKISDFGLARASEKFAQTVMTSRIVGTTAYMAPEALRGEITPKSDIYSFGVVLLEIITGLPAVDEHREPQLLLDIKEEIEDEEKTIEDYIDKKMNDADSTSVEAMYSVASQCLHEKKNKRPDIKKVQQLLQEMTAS
Quantity: IC50 (nM)

Please review the entries below; each comes with its answer.
[
  {
    "Compound": "Cc1cc(-c2nc(C(=O)Nc3cc4cn(C5CCN(CC(F)(F)F)CC5)nc4cc3C(C)(C)O)co2)ccn1 [II-59]",
    "Quantity": "IC50",
    "Recorded measurement": 4.9
  },
  {
    "Compound": "COc1cc2nn(C3CCS(=O)(=O)CC3)cc2cc1NC(=O)c1coc(-c2ccnc(C)c2)n1 [II-96]",
    "Quantity": "IC50",
    "Recorded measurement": 3.7
  },
  {
    "Compound": "Cc1cc(-c2nc(C(=O)Nc3cc4cn(C5CCC(O)CC5)nc4cc3C(C)(C)O)co2)ccn1 (stereo not shown) [II-54]",
    "Quantity": "IC50",
    "Recorded measurement": 23
  },
  {
    "Compound": "CC(C)(O)CCn1cc2cc(NC(=O)c3coc(-c4ccnc(C(F)(F)F)c4)n3)c(C(C)(C)O)cc2n1 [II-93]",
    "Quantity": "IC50",
    "Recorded measurement": 2.7
  },
  {
    "Compound": "Cc1cc(-c2nc(C(=O)Nc3cc4cn(C5CCN(C6COC6)CC5)nc4cc3C(C)(C)O)co2)ccn1 [II-106]",
    "Quantity": "IC50",
    "Recorded measurement": 3.3
  }
]

I. Cc1cc(-c2nc(C(=O)Nc3cc4cn(CCN5CC6CC5CO6)nc4cc3C(C)(C)O)co2)ccn1 (stereo not shown) [II-110]
II. COc1cc2nn(C3CCNCC3)cc2cc1NC(=O)c1nc(-c2ccnc(C)c2)c[nH]1 [II-5C]
Which of the two items, I and II , has the greater recorded IC50? To answer, give the label that identifies your chosen option.
I
